List of ECL signal values.
target: T1, Recombinant Human DLL4 (R&D Systems Cat#1506-D4/CF) (human, UniProt Q9NR61 27-524); test: ECL (MSD) binding assay, Fab on immobilized recombinant human DLL4
T1 construct: also called rHuman DLL4; delta-like protein 4
MEASURED METRIC: ECL signal

Fab VH5-51_IGHD5-18*01>3_IGHJ4*01 G100K/G104T (KT) & V3-4_IGLJ1*01 (Fab, V domains shown, Tested as Fab; Fabs were expressed in E. coli from plasmid A (heavy chain CH1, His6 and Flag tags) and plasmid E (lambda CL); also called H:KT & L:wt) VH: EVQLVQSGAEVKKPGESLKISCKGSGYSFTSYWIGWVRQMPGKGLEWMGIIYPGDSDTRYSPSFQGQVTISADKSISTAYLQWSSLKASDTAMYYCARRKYSYTYDYFDYWGQGTLVTVSS VL: QTVVTQEPSFSVSPGGTVTLTCGLSSGSVSTSYYPSWYQQTPGQAPRTLIYSTNTRSSGVPDRFSGSILGNKAALTITGAQADDESDYYCVLYMGSGISYVFGTGTKVTVL ... 588
Fab VH5-51_IGHD5-18*01>3_IGHJ4*01 G100K/G104T/S28R (KT S28R) & V3-4_IGLJ1*01 (Fab, V domains shown, Tested as Fab; CH1 with His6/Flag tags (plasmid A) and lambda CL (plasmid E) come from the expression vectors) VH: EVQLVQSGAEVKKPGESLKISCKGSGYRFTSYWIGWVRQMPGKGLEWMGIIYPGDSDTRYSPSFQGQVTISADKSISTAYLQWSSLKASDTAMYYCARRKYSYTYDYFDYWGQGTLVTVSS VL: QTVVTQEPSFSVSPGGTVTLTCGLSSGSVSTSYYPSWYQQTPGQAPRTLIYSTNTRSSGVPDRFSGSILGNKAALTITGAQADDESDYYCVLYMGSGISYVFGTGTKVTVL ... 6420
Fab VH5-51_IGHD5-18*01>3_IGHJ4*01 G100K/G104T/G24T/S28R/G35V (KT TRV) & V3-4_IGLJ1*01 (Fab, V domains shown, Tested as Fab; CH1 with His6/Flag tags (plasmid A) and lambda CL (plasmid E) come from the expression vectors; also called H:KT TRV & L:wt) VH: EVQLVQSGAEVKKPGESLKISCKTSGYRFTSYWIVWVRQMPGKGLEWMGIIYPGDSDTRYSPSFQGQVTISADKSISTAYLQWSSLKASDTAMYYCARRKYSYTYDYFDYWGQGTLVTVSS VL: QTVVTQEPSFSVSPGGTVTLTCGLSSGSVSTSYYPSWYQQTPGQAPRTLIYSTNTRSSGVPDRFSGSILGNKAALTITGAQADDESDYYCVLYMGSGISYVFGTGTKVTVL ... 26100
Fab VH5-51_IGHD5-18*01>3_IGHJ4*01 G100K/G104T/G24L/S28R/G35V (KT LRV) & V3-4_IGLJ1*01 (Fab, V domains shown, Tested as Fab; CH1 with His6/Flag tags (plasmid A) and lambda CL (plasmid E) come from the expression vectors) VH: EVQLVQSGAEVKKPGESLKISCKLSGYRFTSYWIVWVRQMPGKGLEWMGIIYPGDSDTRYSPSFQGQVTISADKSISTAYLQWSSLKASDTAMYYCARRKYSYTYDYFDYWGQGTLVTVSS VL: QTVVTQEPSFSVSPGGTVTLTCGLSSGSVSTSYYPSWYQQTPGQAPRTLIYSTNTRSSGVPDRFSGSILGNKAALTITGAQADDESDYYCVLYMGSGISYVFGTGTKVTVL ... 15300
Fab VH5-51_IGHD5-18*01>3_IGHJ4*01 G100K/G104T/G24A/S28R/G35V (KT ARV) & V3-4_IGLJ1*01 (Fab, V domains shown, Tested as Fab; CH1 with His6/Flag tags (plasmid A) and lambda CL (plasmid E) come from the expression vectors) VH: EVQLVQSGAEVKKPGESLKISCKASGYRFTSYWIVWVRQMPGKGLEWMGIIYPGDSDTRYSPSFQGQVTISADKSISTAYLQWSSLKASDTAMYYCARRKYSYTYDYFDYWGQGTLVTVSS VL: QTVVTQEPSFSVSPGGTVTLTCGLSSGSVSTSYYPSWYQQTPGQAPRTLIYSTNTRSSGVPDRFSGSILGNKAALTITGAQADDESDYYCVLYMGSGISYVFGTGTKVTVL ... 17400
